Kindly state IC50 for each of the entries shown.
# assayed_target: human recombinant DAO (Homo sapiens (Human), UniProt P19801)
# Sequence (P19801 20-751): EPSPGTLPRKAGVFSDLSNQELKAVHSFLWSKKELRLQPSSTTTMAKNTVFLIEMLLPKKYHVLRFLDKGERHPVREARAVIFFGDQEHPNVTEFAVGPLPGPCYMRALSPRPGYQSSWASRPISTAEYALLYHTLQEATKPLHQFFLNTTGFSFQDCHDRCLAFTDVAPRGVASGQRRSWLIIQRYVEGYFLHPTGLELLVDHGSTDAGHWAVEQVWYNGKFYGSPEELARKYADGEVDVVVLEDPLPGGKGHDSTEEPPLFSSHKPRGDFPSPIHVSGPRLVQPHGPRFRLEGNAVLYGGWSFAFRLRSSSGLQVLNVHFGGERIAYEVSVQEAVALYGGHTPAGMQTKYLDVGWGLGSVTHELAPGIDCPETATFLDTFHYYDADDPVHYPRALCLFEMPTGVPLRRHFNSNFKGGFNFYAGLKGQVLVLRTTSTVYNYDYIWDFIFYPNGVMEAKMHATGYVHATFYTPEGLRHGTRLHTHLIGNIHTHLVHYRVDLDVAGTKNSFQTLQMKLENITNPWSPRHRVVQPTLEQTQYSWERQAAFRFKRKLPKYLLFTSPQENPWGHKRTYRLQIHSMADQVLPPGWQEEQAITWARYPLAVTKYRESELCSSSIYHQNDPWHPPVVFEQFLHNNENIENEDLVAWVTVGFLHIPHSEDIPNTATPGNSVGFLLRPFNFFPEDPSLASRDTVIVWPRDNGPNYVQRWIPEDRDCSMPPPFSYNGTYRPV
# protocol_summary: Determination of selective inhibitory for DAO (diamine oxidase)
# Type: biochemical
# assay_conditions: human recombinant DAO, 1,4-diaminobutane substrate
Counter-ions that a name gives are not always drawn.

query: Return value of IC50 for input NC/C(=C\F)COc1ccc2c(c1)C(=O)NCC2 [Compound 14, hydrochloride] , no commentary.
result: > 1 µM

query: Return value of IC50 for input NC/C(=C\F)COc1ccc2c(c1)CCNC2=O [Compound 3, hydrochloride] , no commentary.
result: > 0.1 µM

query: Return value of IC50 for input Cc1ccccc1N1CCc2cc(OC/C(=C/F)CN)ccc2C1=O [Compound 46, hydrochloride] , no commentary.
result: > 0.1 µM

query: Return value of IC50 for input Cc1ccc(N2CCc3cc(OC/C(=C/F)CN)ccc3C2=O)cc1 [Compound 24, hydrochloride] , no commentary.
result: > 0.1 µM

query: Return value of IC50 for input CCOC(=O)CN1CCc2cc(OC/C(=C/F)CN)ccc2C1=O [Compound 12, hydrochloride] , no commentary.
result: > 0.1 µM

----------
Kindly state AUC(0-inf) for each of the entries shown.
# protocol_summary: Pharmacokinetics in SD rats after intravenous or oral administration
# Assay type: in vivo
# assay_conditions: male, rat, plasma, iv, I.V., 1 mg/kg
Where a name gives a salt, the structure may show the parent alone.
Form entry: value (ng·h/mL) — number only.

query: Return value of AUC(0-inf) for input CCOC(=O)CN1CCc2cc(OC/C(=C/F)CN)ccc2C1=O [Compound 12, hydrochloride] , no commentary.
result: 843

query: Return value of AUC(0-inf) for input Cc1ccc(N2CCc3cc(OC/C(=C/F)CN)ccc3C2=O)cc1 [Compound 24, hydrochloride] , no commentary.
result: 450

----------
# protocol_summary: Pharmacokinetics in SD rats after intravenous or oral administration
# Assay type: in vivo
# assay_conditions: male, rat, plasma, iv, I.V., 1 mg/kg
Where a name gives a salt, the structure may show the parent alone.
measured_attribute: half-life (h)
Form entry: value (h) — number only.

query: Return value of half-life for input CCOC(=O)CN1CCc2cc(OC/C(=C/F)CN)ccc2C1=O [Compound 12, hydrochloride] , no commentary.
result: 0.936

query: Return value of half-life for input Cc1ccc(N2CCc3cc(OC/C(=C/F)CN)ccc3C2=O)cc1 [Compound 24, hydrochloride] , no commentary.
result: 2.99

----------
# assayed_target: Human recombinant SSAO/VAP-1 (Homo sapiens (Human), UniProt Q16853)
# Sequence (Q16853 whole entry): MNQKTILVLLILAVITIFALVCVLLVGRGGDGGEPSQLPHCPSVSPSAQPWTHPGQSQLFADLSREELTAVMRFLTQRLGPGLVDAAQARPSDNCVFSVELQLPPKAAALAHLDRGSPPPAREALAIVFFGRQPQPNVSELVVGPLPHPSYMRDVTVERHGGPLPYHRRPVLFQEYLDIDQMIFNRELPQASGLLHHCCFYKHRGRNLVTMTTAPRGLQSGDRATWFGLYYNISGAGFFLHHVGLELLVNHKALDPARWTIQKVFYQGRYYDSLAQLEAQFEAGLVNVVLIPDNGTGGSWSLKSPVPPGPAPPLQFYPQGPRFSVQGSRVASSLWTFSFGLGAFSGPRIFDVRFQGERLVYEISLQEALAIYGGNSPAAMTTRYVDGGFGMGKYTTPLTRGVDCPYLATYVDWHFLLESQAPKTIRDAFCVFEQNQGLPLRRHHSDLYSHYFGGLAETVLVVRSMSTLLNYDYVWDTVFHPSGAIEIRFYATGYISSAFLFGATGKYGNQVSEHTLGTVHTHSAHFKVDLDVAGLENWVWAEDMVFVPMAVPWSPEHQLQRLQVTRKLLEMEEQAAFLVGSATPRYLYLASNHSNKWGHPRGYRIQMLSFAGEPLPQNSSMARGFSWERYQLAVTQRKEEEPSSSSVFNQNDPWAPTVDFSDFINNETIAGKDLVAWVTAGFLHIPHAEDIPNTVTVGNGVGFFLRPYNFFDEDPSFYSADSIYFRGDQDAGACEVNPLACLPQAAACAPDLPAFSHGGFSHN
# protocol_summary: Determination of inhibitory activity of human recombinant SSAO/VAP-1 (Amplex Red, benzylamine)
# Format: biochemical
# assay_conditions: human recombinant SSAO/VAP-1, 30 min preincubation at room temperature; read-out: SSAO/VAP-1(Human recombinant protein) IC50/nM
Where a name gives a salt, the structure may show the parent alone.
measured_attribute: IC50

query: Give measured IC50 for COCCN1CCc2cc(OC/C(=C\F)CN)ccc2C1=O [Compound 19, hydrochloride] (Human recombinant SSAO/VAP-1 (Homo sapiens (Human), UniProt Q16853)).
result: 1 nM

query: Give measured IC50 for NC/C(=C/F)COc1ccc2c(c1)CCN(c1ccccc1)C2=O [Compound 6, hydrochloride] (Human recombinant SSAO/VAP-1 (Homo sapiens (Human), UniProt Q16853)).
result: 0.04 nM

query: Give measured IC50 for NC/C(=C\F)COc1ccc2c(c1)CCN(c1ccccc1)C2=O [Compound 5, hydrochloride] (Human recombinant SSAO/VAP-1 (Homo sapiens (Human), UniProt Q16853)).
result: 0.37 nM

query: Give measured IC50 for Cc1ccc(N2CCc3cc(OC/C(=C/F)CN)ccc3C2=O)cc1 [Compound 24, hydrochloride] (Human recombinant SSAO/VAP-1 (Homo sapiens (Human), UniProt Q16853)).
result: 1.16 nM

query: Give measured IC50 for NC/C(=C/F)COc1ccc2c(c1)CCN(c1ccccc1F)C2=O [Compound 35, hydrochloride] (Human recombinant SSAO/VAP-1 (Homo sapiens (Human), UniProt Q16853)).
result: 0.71 nM

query: Give measured IC50 for NC/C(=C\F)COc1ccc2c(c1)CCN(c1ccccn1)C2=O [Compound 28, hydrochloride] (Human recombinant SSAO/VAP-1 (Homo sapiens (Human), UniProt Q16853)).
result: 1.53 nM

query: Give measured IC50 for CN1CCc2cc(OC/C(=C\F)CN)ccc2C1=O [Compound 9, hydrochloride] (Human recombinant SSAO/VAP-1 (Homo sapiens (Human), UniProt Q16853)).
result: 0.61 nM

query: Give measured IC50 for NC/C(=C\F)COc1ccc2c(c1)CCN(C1CCOCC1)C2=O [Compound 16, hydrochloride] (Human recombinant SSAO/VAP-1 (Homo sapiens (Human), UniProt Q16853)).
result: 0.22 nM

query: Give measured IC50 for COC(=O)CCN1CCc2cc(OC/C(=C\F)CN)ccc2C1=O [Compound 57, hydrochloride] (Human recombinant SSAO/VAP-1 (Homo sapiens (Human), UniProt Q16853)).
result: 1.27 nM

query: Give measured IC50 for N#Cc1ccc(N2CCc3cc(OC/C(=C/F)CN)ccc3C2=O)cc1 [Compound 38, hydrochloride] (Human recombinant SSAO/VAP-1 (Homo sapiens (Human), UniProt Q16853)).
result: 0.68 nM

query: Give measured IC50 for NC/C(=C/F)COc1ccc2c(c1)CCN(Cc1ccon1)C2=O [Compound 43, hydrochloride] (Human recombinant SSAO/VAP-1 (Homo sapiens (Human), UniProt Q16853)).
result: 0.71 nM

query: Give measured IC50 for NC/C(=C/F)COc1ccc2c(c1)CCNS2(=O)=O [Compound 33, hydrochloride] (Human recombinant SSAO/VAP-1 (Homo sapiens (Human), UniProt Q16853)).
result: 1.98 nM

query: Give measured IC50 for CN1CCc2cc(OC/C(=C/F)CN)ccc2C1=O [Compound 8, hydrochloride] (Human recombinant SSAO/VAP-1 (Homo sapiens (Human), UniProt Q16853)).
result: 0.32 nM

query: Give measured IC50 for NC/C(=C/F)COc1ccc2c(c1)NC(=O)CC2 [Compound 2, hydrochloride] (Human recombinant SSAO/VAP-1 (Homo sapiens (Human), UniProt Q16853)).
result: 1.01 nM

query: Give measured IC50 for CCOC(=O)CN1CCc2cc(OC/C(=C\F)CN)ccc2C1=O [Compound 13, hydrochloride] (Human recombinant SSAO/VAP-1 (Homo sapiens (Human), UniProt Q16853)).
result: 0.11 nM
